pEC50 M1 reference
- targetUnderTest: human muscarinic M1 receptor (Homo sapiens, UniProt P11229)
- Sequence (P11229 whole entry): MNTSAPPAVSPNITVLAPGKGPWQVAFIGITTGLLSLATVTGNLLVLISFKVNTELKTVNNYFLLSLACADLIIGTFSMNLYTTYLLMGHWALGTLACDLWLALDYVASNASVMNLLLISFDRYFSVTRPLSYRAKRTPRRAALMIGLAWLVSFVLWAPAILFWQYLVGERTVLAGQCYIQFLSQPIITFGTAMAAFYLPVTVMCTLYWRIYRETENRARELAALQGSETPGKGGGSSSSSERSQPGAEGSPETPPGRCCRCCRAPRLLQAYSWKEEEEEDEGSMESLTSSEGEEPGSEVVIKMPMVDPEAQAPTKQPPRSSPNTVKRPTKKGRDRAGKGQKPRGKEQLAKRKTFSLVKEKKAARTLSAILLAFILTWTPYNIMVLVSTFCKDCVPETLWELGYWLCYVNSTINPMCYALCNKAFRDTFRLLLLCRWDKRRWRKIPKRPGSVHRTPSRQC
- protocolDetails: Alphascreen Surefire phospho-ERK1/2 functional assay, M1
- Type: cell-based
- measurementParameters: CHO cells stably expressing human M1; agonist 5 min, 37° C.

>  <compound>
Cc1noc(N2CCCC(N3CCC(N4CCCC4c4cnn(C)c4)CC3)CC2)n1 (single isomer, unassigned) [10-10 Isomer 2b]

>  <pEC50 M1>
<4.70

$$$$
>  <compound>
Cc1noc(N2CCCC(N3CCC(N4CCCC4c4cnn(C)c4)CC3)CC2)n1 (single isomer, unassigned) [10-10 Isomer 2a]

>  <pEC50 M1>
<4.70

$$$$
>  <compound>
CNC(=O)N1CCC[C@H]1C1CCN(C2CCCN(c3nc(C)no3)CC2)CC1 (single isomer, unassigned) [10-12 Isomer 2]

>  <pEC50 M1>
<4.70

$$$$
